Hello, the source for this data is patent US8945864B2, in case you need it.

# system-under-test: sorbose dehydrogenase (Sinorhizobium meliloti)
# Sequence (Q92YU0 entry or part of it): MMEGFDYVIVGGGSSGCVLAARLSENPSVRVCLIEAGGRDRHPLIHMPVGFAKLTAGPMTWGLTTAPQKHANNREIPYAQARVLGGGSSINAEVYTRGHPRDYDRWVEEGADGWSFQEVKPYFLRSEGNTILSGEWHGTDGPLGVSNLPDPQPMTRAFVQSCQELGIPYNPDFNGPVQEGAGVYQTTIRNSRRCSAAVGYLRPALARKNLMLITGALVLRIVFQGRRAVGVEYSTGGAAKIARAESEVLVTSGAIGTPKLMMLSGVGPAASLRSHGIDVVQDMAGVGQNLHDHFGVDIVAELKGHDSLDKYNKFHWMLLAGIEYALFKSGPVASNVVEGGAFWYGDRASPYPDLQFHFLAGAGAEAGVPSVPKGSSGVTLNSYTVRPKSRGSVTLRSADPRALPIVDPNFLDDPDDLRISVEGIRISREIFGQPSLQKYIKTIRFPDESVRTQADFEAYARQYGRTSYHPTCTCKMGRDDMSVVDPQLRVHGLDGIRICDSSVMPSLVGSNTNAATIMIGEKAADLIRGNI
# protocol-details: Inhibitor test: additive in the reaction solution for the activity measurement
# Type: biochemical, Sinorhizobium sp. 97507
We begin with a simple list: items and their reported Relative activity (%).
Number in %, nothing else.

Use these answered entries as a reference point.
[Ca+2].[Cl-].[Cl-] [CaCl2] | 92
O=C([O-])CN(CCN(CC(=O)O)CC(=O)O)CC(=O)[O-].[Na+].[Na+] [EDTA-2Na] | 102
[N-]=[N+]=[N-].[Na+] [NaN3] | 115
OO [H2O2] | 98
[Cl][Ni][Cl] [NiCl2] | 80

In: What value of Relative activity (%) has been recorded for this entry: [Cl-].[Na+] [NaCl]
Out: 85

In: Similarly, [Cl][Pb][Cl] [PbCl2] ?
Out: 83

In: Similarly, Oc1cccc2cccnc12 [8-quinolinol] ?
Out: 106

In: Similarly, NN=C(N)N.O=S(=O)(O)O [Aminoguanidine sulfate] ?
Out: 91

In: Similarly, [Cl][Mn][Cl] [MnCl2] ?
Out: 11

In: Similarly, [Cl-].[Cl-].[Mg+2] [MgCl2] ?
Out: 93

In: Similarly, [Cl][Cd][Cl] [CdCl2] ?
Out: 91
